# minimal effective dose per entry
tested on: behaviors of compound-treated mice; assay: Neuropharmacological Assay (SmartCube); format: in vivo; settings: Mus musculus, ip, 0.25 h, dose having 50% or more total activity in SmartCube, i.p., read-out: MED (minimal effective dose)
Structures can show the parent of a compound that is named as a salt.

compound	minimal effective dose
NC[C@@H]1OCCCc2c(-c3ccncc3)cccc21 (single isomer, unassigned)	10 to 30 mg/kg
CNC[C@H]1OCCCc2c(-c3ccncc3)cccc21 (single isomer, unassigned)	≤ 3 mg/kg
NCC1OCCc2c(-c3ccncn3)cccc21 (stereo not shown) [Compound 60, hydrochloride salt]	3 to 10 mg/kg
NC[C@H]1OCCc2c(-c3cnoc3)cccc21 (single isomer, unassigned) [Compound 87, hydrochloride salt]	≤ 3 mg/kg
NC[C@H]1OCCc2c(-c3ccccn3)cccc21 (single isomer, unassigned) [Compound 46, hydrochloride]	10 to 30 mg/kg
CNC[C@H]1OCCc2c(-c3cncs3)cccc21 (single isomer, unassigned) [Compound 69, hydrochloride salt]	≤ 3 mg/kg
NC[C@@H]1OCCc2c(-c3ccncc3)cccc21 [Compound 19, hydrochloride salt]	> 30 mg/kg

----------
tested on: behaviors of compound-treated mice; assay: Neuropharmacological Assay (SmartCube); format: in vivo; settings: i.p. 15 min before behavioral test, most efficacious dose(s) of 3 doses
Where a name gives a salt, the structure may show the parent alone.
observationType: MS: mood stabilizer (probability that activity matches class)

compound	result
CNC[C@@H]1OCCc2c(-c3cnco3)cccc21 (single isomer, unassigned) [Compound 96, hydrochloride salt]	+ (LOQ ≤ + <5%)
CNC[C@H]1OCCc2c(-c3ncccn3)cccc21 [Compound 23, hydrochloride salt]	+ (LOQ ≤ + <5%)
CNC[C@H]1OCCc2c(-c3cccnc3)cccc21 (single isomer, unassigned) [Compound 8, bis-hydrochloride]	+ (LOQ ≤ + <5%)

----------
system: behaviors of compound-treated mice; test: Neuropharmacological Assay (SmartCube); assay type: in vivo; details: i.p. 15 min before behavioral test, most efficacious dose(s) of 3 doses
Where a name gives a salt, the structure may show the parent alone.
observationType: DP: anti-depressant (probability that activity matches class)

compound	result
CNC[C@H]1OCCc2c(-c3cn[nH]c3)cccc21 [Compound 119, hydrochloride salt]	++++ (50% ≤ ++++)
CNC[C@@H]1OCCCc2c(-c3cncs3)cccc21 (single isomer, unassigned) [Compound 168, hydrochloride salt]	++++ (50% ≤ ++++)
CNC[C@H]1OCc2c(-c3ccncc3)cccc21 [Compound 40, hydrochloride salt]	++++ (50% ≤ ++++)
NC[C@H]1OCc2c(-c3ccncc3)cccc21 (single isomer, unassigned) [Compound 38, hydrochloride salt]	++++ (50% ≤ ++++)
CNC[C@H]1OCCc2c(-c3cc(C)nc(C)c3)cccc21 [Compound 125, dihydrochloride]	++++ (50% ≤ ++++)
CNC[C@H]1OCCc2c(-c3ccccn3)cccc21 (single isomer, unassigned) [Compound 44, hydrochloride salt]	++++ (50% ≤ ++++)
NC[C@H]1OCCc2c(-c3cccnc3)cccc21 [Compound 16, hydrochloride]	++++ (50% ≤ ++++)

----------
test system: behaviors of compound-treated mice; experiment: Neuropharmacological Assay (SmartCube); format: in vivo; conditions: i.p. 15 min before behavioral test, most efficacious dose(s) of 3 doses
Counter-ions that a name gives are not always drawn.
observationType: CE: cognitive enhancer (probability that activity matches class)

compound	testedOn	result
NC[C@@H]1OCCc2ccc(-c3ccncc3)cc21 [Compound 47, hydrochloride]	behaviors of compound-treated mice	+ (LOQ ≤ + <5%)
CNC[C@@H]1OCCc2c(-c3c[nH]cn3)cccc21 (single isomer, unassigned) [Compound 114, hydrochloride salt]	behaviors of compound-treated mice	+ (LOQ ≤ + <5%)
NC[C@@H]1OCCc2c(-c3cnoc3)cccc21 (single isomer, unassigned) [Compound 86, hydrochloride salt]	behaviors of compound-treated mice	++ (5% ≤ ++ <25%)
NC[C@H]1OCc2c(-c3cccnc3)cccc21 [Compound 36, hydrochloride]	behaviors of compound-treated mice	++ (5% ≤ ++ <25%)
NC[C@H]1OCCc2c(-c3ccncn3)cccc21 (single isomer, unassigned) [Compound 75, hydrochloride salt]	behaviors of compound-treated mice	+ (LOQ ≤ + <5%)
Cc1cc(-c2cccc3c2CCO[C@@H]3CN)ccn1 (single isomer, unassigned) [Compound 123, hydrochloride salt]	behaviors of compound-treated mice	+ (LOQ ≤ + <5%)
CNC[C@@H]1OCCc2c(-c3ccccc3)cccc21 (single isomer, unassigned) [Compound 128, hydrochloride salt]	behaviors of compound-treated mice	+ (LOQ ≤ + <5%)
